# Tested on: COLO 205 colon
# Experimental Details: NCI-60 one-dose screen, 48 h (100 = growth as untreated, 0 = no growth, -100 = all killed)
# Measurement Parameters: 10 µM unless noted
Compounds without any hit were thinned out: in the full panel of roughly 83,000, 20% have a hit.
Think of 90% as a floor: if growth stands on it or above, it is Condition met; beneath it, Condition not met.

Compound	Class Name
C=CCOC(=O)C1=C(C)N(CC)C(=O)NC1c1c(Cl)n(C)c2ccccc12 (stereo not drawn)	Condition met
Clc1c(Cl)[n+](Cc2ccc3ccccc3c2)cn1Cc1ccc2ccccc2c1	Condition not met
O=C(Cc1ccc(/C=C/C(=O)c2ncc[nH]2)cc1)Nc1cc(C(F)(F)F)cc(C(F)(F)F)c1	Condition met
CC1CCN(C(=O)CCCl)c2ccccc21 (stereo not drawn)	Condition met
CN(C)c1ccc(/C=C(\C#N)c2cc3ccccc3[nH]2)cc1	Condition not met
CC1=C2[C@@H](CC1)[C@]1(C)O[C@@](c3ccccc3)(C[C@H]1OC(=O)CO)[C@H]2OC(=O)/C=C/c1ccccc1	Condition met
CN1CCN(CC(=O)Nc2ccc3ncnc(Nc4ccc(Oc5cccc(C(F)(F)F)c5)c(Cl)c4)c3c2)CC1	Condition not met
COc1ccc(C2=CC(c3cc(OC)c(OC)c(OC)c3)n3ncnc3N2)cc1 (stereo not drawn)	Condition not met
O=C(Nc1ncc(Cc2cc(C(F)(F)F)ccc2Cl)s1)c1cccs1	Condition not met
CC(=O)OC(c1ccccc1)C1CCOC1=O (stereo not drawn)	Condition met
COc1ccc(CCN(CC(=O)N(CC(N)=O)C2CCC[C@@H]2OCc2ccccc2)C(=O)CN(C(=O)CN(CCc2ccc(Cl)cc2)C(=O)CN(C(=O)CN(C)Cc2ccccc2F)[C@H](C)C2CCCCC2)[C@H](C)C2CCCCC2)cc1OC (stereo partly drawn)	Condition not met
O=C1/C=C/[C@@H](O)[C@@H]2C[C@@H](O)C[C@H]2/C=C/CCC[C@H](CCO)O1	Condition not met
COc1ccc(C(=S)N2CCN(c3ccc(Cl)cc3)CC2)cc1	Condition met
CC(=O)c1ccc(Nc2nccc(-c3ccc4ccccc4c3)n2)cc1	Condition met
Cc1nc2c(c(=O)[nH]1)C(c1ccccc1)c1ccc3ccccc3c1O2 (stereo not drawn)	Condition not met
CC[C@]12C=CCN3CC[C@@]4(c5ccc(OC)cc5N(C)[C@H]4[C@@](O)(C(=O)OC)[C@@H]1OC(=O)CCC[P+](c1ccccc1)(c1ccccc1)c1ccccc1)[C@@H]32	Condition not met
COC1=C(C)C(=O)N2[C@@H]1[C@H](c1ccccc1)OC21C=CC(=O)C=C1	Condition not met

---

# Tested on: EKVX NSCLC
# Experimental Details: NCI-60 one-dose screen, 48 h (100 = growth as untreated, 0 = no growth, -100 = all killed)
# Measurement Parameters: 10 µM unless noted
This is part of a sample that, as a whole, favours compounds with a hit. Of some 83,000 tested, about 20% had one in any assay.
Measured Quantity: growth (%)

Item Smiles	Measured Quantity	Readout Unit	Result Value
CCn1cc(CNc2ccc(C(=O)Nc3cc4cc(OC)c(OC)cc4c(C)n3)cc2)cn1	growth	%	60.5
CCOC(=O)C(=Cc1ccc(-c2ccccc2)cc1)C(=O)OCC	growth	%	95
CC1=C2[C@@H](CC1)[C@]1(C)O[C@@](c3ccccc3)(C[C@H]1OC(=O)CO)[C@H]2OC(=O)/C=C/c1ccccc1	growth	%	83.4
Clc1ccc(-c2cc(-c3ccccc3)nc(NCCNc3ccnc4cc(Cl)ccc34)n2)cc1	growth	%	88.4
Cc1c2cccnc2c(C)c2c1c1cc(CO)ccc1n2C	growth	%	20.3
COc1cccc(CCNc2ncnc3c2ncn3Cc2nnc3c4ccccc4c(Cl)nn23)c1	growth	%	73.9
C/C(=N\O)c1ccc(NC(=O)CSc2nnc(-c3cc(-c4ccc(S(N)(=O)=O)cc4)nc4ccccc34)n2-c2ccccc2)cc1	growth	%	77.3
O=C(Nc1cnc(Nc2ccc(N3CCOCC3)nc2)nc1Oc1ccc(C(F)(F)F)cc1)c1ccncc1	growth	%	100
CCN1CCN(CC(=O)Nc2ccc(-c3cn4c(n3)sc3cc(Oc5ccnc(C(=O)NC)c5)ccc34)cc2)CC1	growth	%	100
